test system: HCI-012 (organoid from a breast cancer xenograft); experiment: CTG-3D luminescence at 96 h relative to day-0 seeding control (ratio to day 0); higher = more growth / less cytotoxicity; PDxO 3D drug screen, 96 h, CTG-3D normalised to day-0 seeding control.; details: 1 µM; days in culture: 201
attribute_measured: CTG-3D luminescence at 96 h

{"compound": "C=CC(=O)N1CCC[C@@H](n2nc(-c3ccc(Oc4ccccc4)cc3)c3c(N)ncnc32)C1 [ibrutinib]", "assay_result": 2.52}
{"compound": "NC(=O)Nc1cc(-c2cccc(F)c2)sc1C(=O)N[C@H]1CCCNC1 [AZD7762]", "assay_result": 2.14}
{"compound": "C=CCn1c(=O)c2cnc(Nc3ccc(N4CCN(C)CC4)cc3)nc2n1-c1cccc(C(C)(C)O)n1 [adavosertib]", "assay_result": 2.25}
{"compound": "COc1cc2c(Oc3ccc4[nH]c(C)cc4c3F)ncnc2cc1OCCCN1CCCC1 [cediranib]", "assay_result": 2.29}
{"compound": "O=C(c1ccc(F)c(F)c1Nc1ccc(I)cc1F)N1CC(O)([C@@H]2CCCCN2)C1 [cobimetinib]", "assay_result": 2.24}
{"compound": "CC(C)n1nc(-c2ccc3oc(N)nc3c2)c2c(N)ncnc21 [sapanisertib]", "assay_result": 1.37}
{"compound": "C[C@@H]1COCCN1c1cc(C2([S@](C)(=N)=O)CC2)nc(-c2cc[nH]c3nccc2-3)n1 [ceralasertib]", "assay_result": 2.3}
{"compound": "CC[C@H](NC(=O)[C@H](C)NC)C(=O)N1C[C@@H](O)C[C@H]1Cc1c(-c2[nH]c3cc(F)ccc3c2C[C@@H]2C[C@H](O)CN2C(=O)[C@H](CC)NC(=O)[C@H](C)NC)[nH]c2cc(F)ccc12 [birinapant]", "assay_result": 0.102}
{"compound": "CNC(=O)c1cccc(-c2ccc3c(N4CCOC[C@@H]4C)nc(N4CCOC[C@@H]4C)nc3n2)c1 [vistusertib]", "assay_result": 1.42}
{"compound": "CCN(c1cc(C#CCN2CCOCC2)cc(C(=O)NCc2c(C)cc(C)[nH]c2=O)c1C)[C@H]1CC[C@H](N(C)CCOC)CC1", "assay_result": 2.33}

---

system: HCI-012; test: CTG-3D luminescence at 96 h relative to day-0 seeding control (ratio to day 0); higher = more growth / less cytotoxicity; PDxO 3D drug screen (set 2), 96 h, CTG-3D normalised to day-0 seeding control.; conditions: 0.00025 µM; days in culture: 256

{"test_smiles": "CO[C@H]1C[C@@H]2CC[C@@H](C)[C@@](O)(O2)C(=O)C(=O)N2CCCC[C@H]2C(=O)O[C@H]([C@H](C)C[C@@H]2CC[C@@H](OCCO)[C@H](OC)C2)CC(=O)[C@H](C)/C=C(\\C)[C@@H](O)[C@@H](OC)C(=O)[C@H](C)C[C@H](C)/C=C/C=C/C=C/1C", "CTG-3D luminescence at 96 h": 1.8}
{"test_smiles": "Nc1cc(C(F)(F)F)c(-c2cc(N3CCOCC3)nc(N3CCOCC3)n2)cn1", "CTG-3D luminescence at 96 h": 2.45}
{"test_smiles": "CC(=O)O[C@@]12CO[C@@H]1C[C@H](O)[C@@]1(C)C(=O)[C@H](O)C3=C(C)[C@@H](OC(=O)[C@H](O)[C@@H](NC(=O)OC(C)(C)C)c4ccccc4)C[C@@](O)([C@@H](OC(=O)c4ccccc4)[C@H]21)C3(C)C", "CTG-3D luminescence at 96 h": 2.22}

---

tested on: HCI-025 (organoid from a breast cancer xenograft); assay: CTG-3D luminescence at 96 h relative to day-0 seeding control (ratio to day 0); higher = more growth / less cytotoxicity; PDxO 3D drug screen, 96 h, CTG-3D normalised to day-0 seeding control.; settings: 0.005 µM; days in culture: 172

{"test_smiles": "CC[C@H](NC(=O)[C@H](C)NC)C(=O)N1C[C@@H](O)C[C@H]1Cc1c(-c2[nH]c3cc(F)ccc3c2C[C@@H]2C[C@H](O)CN2C(=O)[C@H](CC)NC(=O)[C@H](C)NC)[nH]c2cc(F)ccc12", "tested_system": "HCI-025", "CTG-3D luminescence at 96 h": 1.16}
{"test_smiles": "COc1cc2c(Oc3ccc4[nH]c(C)cc4c3F)ncnc2cc1OCCCN1CCCC1", "tested_system": "HCI-025", "CTG-3D luminescence at 96 h": 3.42}
{"test_smiles": "C/C=C1\\NC(=O)[C@H]2CSSCC/C=C/[C@H](CC(=O)N[C@H](C(C)C)C(=O)N2)OC(=O)[C@H](C(C)C)NC1=O", "tested_system": "HCI-025", "CTG-3D luminescence at 96 h": 1.58}
{"test_smiles": "C=CC(=O)N1CCC[C@@H](n2nc(-c3ccc(Oc4ccccc4)cc3)c3c(N)ncnc32)C1", "tested_system": "HCI-025", "CTG-3D luminescence at 96 h": 2.79}

---

system: HCI-016 (organoid from a triple-negative breast cancer xenograft); assay: CTG-3D luminescence at 96 h relative to day-0 seeding control (ratio to day 0); higher = more growth / less cytotoxicity; PDxO 3D drug screen, 96 h, CTG-3D normalised to day-0 seeding control.; conditions: 0.005 µM; days in culture: 199

{"molecule": "COc1cc2c(Oc3ccc4[nH]c(C)cc4c3F)ncnc2cc1OCCCN1CCCC1", "CTG-3D luminescence at 96 h": 1.17}
{"molecule": "CC(=O)O[C@H]1C(=O)[C@@]2(C)[C@H]([C@H](OC(=O)c3ccccc3)[C@]3(O)C[C@H](OC(=O)[C@H](O)[C@@H](NC(=O)c4ccccc4)c4ccccc4)C(C)=C1C3(C)C)[C@]1(OC(C)=O)CO[C@@H]1C[C@@H]2O", "CTG-3D luminescence at 96 h": 0.633}
{"molecule": "NC(=O)c1cccc2cn(-c3ccc([C@@H]4CCCNC4)cc3)nc12", "CTG-3D luminescence at 96 h": 1.96}
{"molecule": "C[C@]12CC[C@@H]3c4ccc(O)cc4C[C@@H](CCCCCCCCC[S+]([O-])CCCC(F)(F)C(F)(F)F)[C@H]3[C@@H]1CC[C@@H]2O (stereo not given in full)", "CTG-3D luminescence at 96 h": 1.9}
{"molecule": "Cc1nc(-c2cn3c(n2)-c2ccc(-c4cnn(C(C)(C)C(N)=O)c4)cc2OCC3)n(C(C)C)n1", "CTG-3D luminescence at 96 h": 1.69}

---

system: HCI-010 (organoid from a breast cancer xenograft); experiment: CTG-3D luminescence at 96 h relative to day-0 seeding control (ratio to day 0); higher = more growth / less cytotoxicity; PDxO 3D drug screen (set 2), 96 h, CTG-3D normalised to day-0 seeding control.; conditions: 0.005 µM; days in culture: 79

{"test_smiles": "CO[C@H]1C[C@@H]2CC[C@@H](C)[C@@](O)(O2)C(=O)C(=O)N2CCCC[C@H]2C(=O)O[C@H]([C@H](C)C[C@@H]2CC[C@@H](O)[C@H](OC)C2)CC(=O)[C@H](C)/C=C(\\C)[C@@H](O)[C@@H](OC)C(=O)[C@H](C)C[C@H](C)/C=C/C=C/C=C/1C", "CTG-3D luminescence at 96 h": 1.11}
{"test_smiles": "O=C(c1cc(Cc2n[nH]c(=O)c3ccccc23)ccc1F)N1CCN(C(=O)C2CC2)CC1", "CTG-3D luminescence at 96 h": 2.08}
{"test_smiles": "CCOc1ccn(-c2ccc(F)cc2)c(=O)c1C(=O)Nc1ccc(Oc2ccnc(N)c2Cl)c(F)c1", "CTG-3D luminescence at 96 h": 1.94}
{"test_smiles": "CC(=O)O[C@@]12CO[C@@H]1C[C@H](O)[C@@]1(C)C(=O)[C@H](O)C3=C(C)[C@@H](OC(=O)[C@H](O)[C@@H](NC(=O)OC(C)(C)C)c4ccccc4)C[C@@](O)([C@@H](OC(=O)c4ccccc4)[C@H]21)C3(C)C", "CTG-3D luminescence at 96 h": 1.14}
{"test_smiles": "Cc1c(CN2CCN(C(=O)[C@H](C)O)CC2)sc2c(N3CCOCC3)nc(-c3cnc(N)nc3)nc12", "CTG-3D luminescence at 96 h": 1.96}

---

system: HCI-016; test: CTG-3D luminescence at 96 h relative to day-0 seeding control (ratio to day 0); higher = more growth / less cytotoxicity; PDxO 3D drug screen, 96 h, CTG-3D normalised to day-0 seeding control.; details: 0.005 µM; days in culture: 172
attribute_measured: CTG-3D luminescence at 96 h

{"compound": "Nc1ccn([C@@H]2O[C@H](CO)[C@@H](O)C2(F)F)c(=O)n1 [gemcitabine]", "attribute_measured": "CTG-3D luminescence at 96 h", "assay_result": 1.64}
{"compound": "NC1(C(=O)N[C@@H](CCO)c2ccc(Cl)cc2)CCN(c2nc[nH]c3nccc2-3)CC1 [capivasertib]", "attribute_measured": "CTG-3D luminescence at 96 h", "assay_result": 1.88}
{"compound": "C[C@H](NC(=O)CCC(F)(F)F)C(=O)N[C@@H]1C(=O)N(CCO)c2ncccc2-c2ccccc21 [crenigacestat]", "attribute_measured": "CTG-3D luminescence at 96 h", "assay_result": 1.71}
{"compound": "CC[C@H](NC(=O)[C@H](C)NC)C(=O)N1C[C@@H](O)C[C@H]1Cc1c(-c2[nH]c3cc(F)ccc3c2C[C@@H]2C[C@H](O)CN2C(=O)[C@H](CC)NC(=O)[C@H](C)NC)[nH]c2cc(F)ccc12 [birinapant]", "attribute_measured": "CTG-3D luminescence at 96 h", "assay_result": 1.82}
{"compound": "C[C@@H]1COCCN1c1cc(C2([S@](C)(=N)=O)CC2)nc(-c2cc[nH]c3nccc2-3)n1 [ceralasertib]", "attribute_measured": "CTG-3D luminescence at 96 h", "assay_result": 1.66}
{"compound": "NC(=O)Nc1cc(-c2cccc(F)c2)sc1C(=O)N[C@H]1CCCNC1 [AZD7762]", "attribute_measured": "CTG-3D luminescence at 96 h", "assay_result": 1.78}
{"compound": "CC(C)(C(=O)NCC(F)(F)C(F)(F)F)C(=O)N[C@@H]1C(=O)Nc2ccccc2-c2ccccc21", "attribute_measured": "CTG-3D luminescence at 96 h", "assay_result": 1.92}
{"compound": "CS(=O)(=O)c1ccc(C(=O)Nc2ccc(Cl)c(-c3ccccn3)c2)c(Cl)c1 [vismodegib]", "attribute_measured": "CTG-3D luminescence at 96 h", "assay_result": 1.95}
